system: Caco-2 cells; format: cell-based; details: Caco-2; time not given, text says 48 h
Measured Endpoint: %Cell death Caco-2 (%)
Write the number in % without appending the unit.

INSERT INTO measurements (molecule, unit_text, observed_result) VALUES
  ('Cc1ccc(Sc2ccccc2N2CCNCC2)c(C)c1', '%', 52.1),
  ('COc1ccc2c(O[C@@H]3C[C@H]4C(=O)N[C@]5(C(=O)NS(=O)(=O)C6CC6)C[C@H]5/C=C\CCCCN(C)C(=O)[C@@H]4C3)cc(-c3nc(C(C)C)cs3)nc2c1C', '%', 5.5),
  ('C[C@@H](NCCCc1cccc(C(F)(F)F)c1)c1cccc2ccccc12', '%', 49.4),
  ('CC1=C(C(=O)OC(C)C)C(c2cccc([N+](=O)[O-])c2)C(C(=O)OC2CN(C(c3ccccc3)c3ccccc3)C2)=C(N)N1 (stereo not shown)', '%', 13.7),
  ('CCCCc1oc2ccc(NS(C)(=O)=O)cc2c1C(=O)c1ccc(OCCCN(CCCC)CCCC)cc1', '%', 86.9);

Lab book: %Cell death Caco-2 of CC(C)(C)C#Cc1cc(N(C(=O)[C@H]2CC[C@H](C)CC2)[C@H]2CC[C@H](O)CC2)c(C(=O)O)s1 noted as 36.3

Lab book: %Cell death Caco-2 of O=C(NC1CCN(CCCCC2(C(=O)NCC(F)(F)F)c3ccccc3-c3ccccc32)CC1)c1ccccc1-c1ccc(C(F)(F)F)cc1 [Lomitapide] noted as 81.7
